Molecular target: UniProtKB P41145
Assay: Agonist activity at human kappa opioid receptor expressed in CHO-K1 cells assessed as inhibition of forskolin-stimulated cAMP accumulation by HitHunter assay based luminescence analysis relative to control
Assay type: functional, cell-based
Settings: filed as agonist
Kindly state Emax for each of the entries shown.
Answers are plain numbers, in %.

>>> recorded_measurement("C/C=C1/CN2CC[C@]34c5cc(Br)ccc5NC3C(C(=O)OC)[C@H]1C[C@H]24 (some centres undefined)")
100
>>> recorded_measurement("C/C=C1/CN2CC[C@]34C(=C(C(=O)OC)[C@H]1C[C@H]23)Nc1ccc(-c2ccoc2)cc14")
102
>>> recorded_measurement("C/C=C1/CN2CC[C@]34C(=C(C(=O)OC)[C@H]1C[C@H]23)Nc1ccc(C#N)cc14")
102

Task: Which Emax reading was recorded for the molecule C/C=C1/CN2CC[C@]34C(=C(C(=O)OC)[C@H]1C[C@H]23)Nc1ccccc14 ?
Output: 91

----------
Target: UniProtKB P35372
attribute measured: Ki (µM)
Numbers only, in µM.

Task: Which Ki reading was recorded for the molecule C/C=C1/CN2CC[C@]34C(=C(C(=O)OC)[C@H]1C[C@H]23)Nc1ccccc14 [AKUAMMICINE] ?
Output: 3.73

----------
Molecular target: 5-hydroxytryptamine receptor 2B (Homo sapiens)
Sequence (P41595 whole entry): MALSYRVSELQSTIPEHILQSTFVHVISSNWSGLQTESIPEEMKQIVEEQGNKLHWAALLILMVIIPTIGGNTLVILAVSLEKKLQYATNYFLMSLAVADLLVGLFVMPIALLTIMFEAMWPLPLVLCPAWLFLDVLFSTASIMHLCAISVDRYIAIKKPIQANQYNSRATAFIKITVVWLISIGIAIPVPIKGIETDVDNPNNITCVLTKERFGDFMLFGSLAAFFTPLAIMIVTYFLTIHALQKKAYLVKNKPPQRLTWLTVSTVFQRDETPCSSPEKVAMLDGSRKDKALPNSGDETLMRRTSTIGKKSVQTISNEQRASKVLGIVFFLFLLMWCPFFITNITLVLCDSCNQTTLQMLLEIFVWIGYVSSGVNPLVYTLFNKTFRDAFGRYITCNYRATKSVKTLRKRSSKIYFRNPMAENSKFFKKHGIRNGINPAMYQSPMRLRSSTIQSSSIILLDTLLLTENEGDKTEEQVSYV
attribute measured: Ki
Report as: number unit

Task: Which Ki reading was recorded for the molecule C/C=C1/CN2CC[C@]34C(=C(C(=O)OC)[C@H]1C[C@H]23)Nc1ccc(I)cc14 ?
Output: 0.767 µM

----------
Target: Mu-type opioid receptor (Homo sapiens, UniProt P35372)
Sequence (P35372 whole entry): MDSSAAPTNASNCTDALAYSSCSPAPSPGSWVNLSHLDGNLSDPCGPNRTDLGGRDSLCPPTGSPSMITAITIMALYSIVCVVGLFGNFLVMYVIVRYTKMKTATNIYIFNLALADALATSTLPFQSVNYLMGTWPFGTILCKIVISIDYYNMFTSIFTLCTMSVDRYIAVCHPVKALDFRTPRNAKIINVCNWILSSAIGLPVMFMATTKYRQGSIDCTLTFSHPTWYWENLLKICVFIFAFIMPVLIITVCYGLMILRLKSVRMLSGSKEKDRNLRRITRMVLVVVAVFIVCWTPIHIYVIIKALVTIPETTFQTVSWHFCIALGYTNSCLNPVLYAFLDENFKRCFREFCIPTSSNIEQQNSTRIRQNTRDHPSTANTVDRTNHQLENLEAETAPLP
Test: Agonist activity at human mu opioid receptor expressed in CHO-K1 cells assessed as inhibition of forskolin-stimulated cAMP accumulation by HitHunter assay based luminescence analysis relative to control
Format: functional, cell-based
Settings: filed as agonist
attribute measured: Emax (%)
One number for each entry, in %.

Reference set, count: 3
>>> recorded_measurement("C/C=C1/CN2CC[C@]34C(=C(C(=O)OC)[C@H]1C[C@H]23)Nc1ccc(-c2ccccc2)cc14")
106
>>> recorded_measurement("C/C=C1/CN2CC[C@]34C(=C(C(=O)OC)[C@H]1C[C@H]23)Nc1ccc(-c2ccsc2)cc14")
107
>>> recorded_measurement("C/C=C1/CN2CC[C@]34C(=C(C(=O)OC)[C@H]1C[C@H]23)Nc1ccc(-c2ccoc2)cc14")
99

Continue with the next molecule.
Task: Which Emax reading was recorded for the molecule C/C=C1/C[N+]2(Cc3ccccc3)CC[C@]34C(=C(C(=O)OC)[C@H]1C[C@@H]32)Nc1ccccc14 (some centres undefined) ?
Output: 112

----------
Target: Kappa-type opioid receptor (Homo sapiens, UniProt P41145)
Sequence (P41145 whole entry): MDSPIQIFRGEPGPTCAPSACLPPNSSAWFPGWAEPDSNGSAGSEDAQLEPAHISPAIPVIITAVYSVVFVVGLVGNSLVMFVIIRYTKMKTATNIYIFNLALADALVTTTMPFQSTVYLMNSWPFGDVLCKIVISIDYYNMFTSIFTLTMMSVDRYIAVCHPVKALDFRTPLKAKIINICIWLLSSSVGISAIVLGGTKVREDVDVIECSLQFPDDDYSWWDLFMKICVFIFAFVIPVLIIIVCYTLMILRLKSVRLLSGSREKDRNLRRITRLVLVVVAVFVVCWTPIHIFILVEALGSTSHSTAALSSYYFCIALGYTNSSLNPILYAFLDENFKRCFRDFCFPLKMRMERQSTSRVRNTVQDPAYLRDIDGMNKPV
Assay: Binding affinity to kappa opioid receptor (unknown origin) by radioligand displacement assay
Kindly state Ki for each of the entries shown.
Report as: number unit

>>> recorded_measurement("C/C=C1/CN2CC[C@]34C(=C(C(=O)OC)[C@H]1C[C@H]23)Nc1ccccc14 [AKUAMMICINE]")
"166 nM"

Continue with the next molecule.
Task: Which Ki reading was recorded for the molecule C/C=C1/CN2CC[C@]34C(=C(C(=O)OC)[C@H]1C[C@H]23)Nc1ccc(I)cc14 ?
Output: 1 nM

----------
Parameter pKi, tested on Alpha-2C adrenergic receptor (Homo sapiens, UniProt P18825), listed per item.
Sequence (P18825 whole entry): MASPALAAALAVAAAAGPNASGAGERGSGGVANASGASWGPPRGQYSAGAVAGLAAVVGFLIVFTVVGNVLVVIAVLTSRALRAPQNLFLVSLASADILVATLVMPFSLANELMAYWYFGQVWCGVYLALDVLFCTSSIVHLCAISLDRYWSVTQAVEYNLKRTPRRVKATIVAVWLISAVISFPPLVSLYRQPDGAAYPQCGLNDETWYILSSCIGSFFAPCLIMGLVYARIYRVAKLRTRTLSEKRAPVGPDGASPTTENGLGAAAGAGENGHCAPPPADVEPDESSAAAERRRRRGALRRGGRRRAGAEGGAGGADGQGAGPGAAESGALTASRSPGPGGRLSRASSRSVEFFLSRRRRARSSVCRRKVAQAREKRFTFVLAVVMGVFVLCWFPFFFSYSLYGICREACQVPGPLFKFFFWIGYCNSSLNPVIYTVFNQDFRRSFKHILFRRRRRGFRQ
One number for each entry, as −log10 of the molar value.

Reference set, count: 2
>>> recorded_measurement("C/C=C1/CN2CC[C@]34C(=C(C(=O)OC)[C@H]1C[C@H]23)Nc1ccccc14")
5.32
>>> recorded_measurement("C/C=C1/CN2CC[C@]34C(=C(C(=O)OC)[C@H]1C[C@H]23)Nc1ccc(I)cc14")
5.54

Continue with the next compound.
Task: Which pKi reading was recorded for the compound C/C=C1/CN2CC[C@]34C(=C(C(=O)OC)[C@H]1C[C@H]23)Nc1ccc(Br)cc14 ?
Output: 5.54

FYI, the data here is from ChEMBL document CHEMBL6074668.
